system: CAKI-1 renal; test: NCI-60 one-dose screen, 48 h; settings: 10 µM unless noted
This is part of a sample that, as a whole, favours compounds with a hit. Of some 83,000 tested, about 20% had one in any assay. Calls of active or inactive are those of the source. The calls were made as follows: active = growth percent below 10; inactive = the rest.
Field 'call' accepts active, inactive

Task item: For this molecule, state the assay outcome: COc1cc(/C=N/NC(=O)c2cnn3c2NC(c2ccccc2)C3)cc(OC)c1OC (stereo unspecified)
Reply: inactive

Task item: Please share the test call associated with C[C@@H](Oc1cc(-c2cnn(C3CC4(CCCNC4)C3)c2)cnc1N)c1c(Cl)ccc(F)c1Cl (stereo partly specified) .
Reply: inactive

Task item: How did this test come out for `O=C(N/N=C(\CS(=O)(=O)c1ccccc1)c1cc2cc(Br)ccc2oc1=O)c1ccccc1` ?
Reply: inactive

Task item: Any idea what this test logged for `CCCCCCCCCCCCSC1=CC(=O)C=CC1=O` ?
Reply: inactive

Task item: I would be grateful if you could indicate the recorded call for `Cc1cc(=O)c2c(C)ccc(C)c2[nH]1` .
Reply: inactive

Task item: Called result for `CNc1ccc(Br)cc1-c1n[nH]c(=O)[nH]c1=O`
Reply: inactive

Task item: Which result was noted for this molecule in the test: `COc1cc(C(=O)/C=C/c2c(-c3cccs3)nc3sccn23)cc(OC)c1OC`
Reply: active

Task item: Give the logged outcome of this assay for the following molecule: O=C1NC(=O)C2(CCCC2C(=O)O)N1 (stereo unspecified)
Reply: inactive

Task item: # fetch the recorded call for `COc1cc2nc(SCc3cc(OC)c(OC)c(OC)c3)n(-c3ccccc3OC)c(=O)c2cc1OC` here
Reply: inactive

Task item: Recorded test outcome, item `CCN(CC)c1ccc2c(c1)OS(=O)(=O)N=C2`
Reply: inactive

Task item: Hi, sorry to bother you, what did the test record for `Cc1cc(C)c(S(=O)O)c(C)c1` ?
Reply: inactive

---

system: M14 melanoma; assay: NCI-60 one-dose screen, 48 h; conditions: 10 µM unless noted
This is part of a sample that, as a whole, favours compounds with a hit. Of some 83,000 tested, about 20% had one in any assay. Activity calls are given as the source filed them. How the source made its calls: active means growth percent below 10; inactive means the rest.
Pick from active, inactive when you respond.

Task item: Dear all, I need the recorded test outcome for `NC(=O)c1cccc(-n2ccc3cc(NC(=O)Nc4ccc(Cl)c(Cl)c4)ccc32)n1` , thank you.
Reply: inactive

Task item: Record lookup: outcome of this test for `COc1ccc(-c2[nH]ncc2Nc2cc(OC)c(OC)c(OC)c2)cc1` ?
Reply: inactive

Task item: Would you mind telling me which call this test gave COc1ccc(OC2=C(C#N)C(=N)N3c4ccccc4Sc4ccccc4C3N2)cc1 (stereo not given) ?
Reply: inactive

Task item: State the result this test recorded for `Cc1nn2c(-c3nc4ccc(Cl)cc4[nH]3)c(-c3ccc(F)cc3)nc2s1` .
Reply: inactive

Task item: Which result was noted for this molecule in the test: `O=C(O)CCN1CCN(c2cccc(Cl)c2)CC1`
Reply: inactive

Task item: Which result was noted for this molecule in the test: `CN1CCN(CCCn2c3c(sc4ncccc43)c(=O)n3nnc(-c4ccccc4)c23)CC1`
Reply: inactive

Task item: Assay outcome for CC(C)(C)[Si](C)(C)OC1[C@@H](O[Si](C)(C)C(C)(C)C)[C@@H](CNC(=O)NC(=O)C(F)(F)F)O[C@H]1n1cnc2c(NC(=O)Nc3ccccc3)ncnc21 (stereo not given in full) : what was it?
Reply: inactive

Task item: Please state the recorded outcome for this molecule: `CCN(CC)CCCNc1ccc(C)c2sc3ccccc3c(=O)c12`
Reply: active

Task item: Per the records of this test, what outcome belongs to COc1ccc(/C=N/OCC(O)CN2CCC(O)CC2)cc1OC1CCCC1 (stereo not given) ?
Reply: inactive

Task item: Called result for `O=S(=O)(Nc1ccccc1Cl)c1ccc(-c2cnc(C3CC3)o2)cc1`
Reply: inactive
